Readings of half-life for the listed molecules
# protocol-details: Pharmacokinetic test in mice
# Format: in vivo
# condition: mouse, po; male ICR mice, intragastric administration (10 mg/kg), plasma
experimental-readout: half-life (h)

> print(dat)
                                 mol.smiles  experimental.readout  unit.name  test.result
1  CS(=O)(=O)N1CC(OC(=O)N2CCC3(CC2)CC(Oc2cc(CN4Cc5ccc(C(F)(F)F)cc5C4)ccn2)C3)C1             half-life          h         3.65
2  [2H]C([2H])([2H])C(=O)N[C@H]1CC[C@H](c2cc3oc(CN4Cc5ccc(C(F)(F)F)cc5C4)cc(=O)c3o2)CC1             half-life          h         2.08
3  [2H]C([2H])([2H])n1cc(C(=O)N[C@H]2CC[C@H](CCOc3cc(CN4Cc5ccc(C(F)(F)F)cc5C4)ccn3)CC2)cn1             half-life          h         6.62
4  CS(=O)(=O)N1CCC(CCOc2cc(CN3Cc4ccc(C5CC5)cc4C3)ccn2)CC1             half-life          h         2.73

Where do the numbers come from? From patent EP4700022A1.
